Record form. Attribute: solubility kinetic. Fill in for each entry.
- condition_set: buffer; pH 7.4; 200.0 µM
Give bare numbers, in µg/mL.

Answered examples (4):
CC1CCN(c2cc(Br)c([N+](=O)[O-])cc2F)CC1	3.1
COc1ccc(C(OC(=O)c2ccco2)C(=O)NC2CCCC2)cc1 (stereo not given)	3.4
Cc1ccccc1NCc1nc2ccccc2n1C	5
Cc1cccc(Nc2nc(Cl)ncc2F)c1C	5.3

For every item in the list below, what is its measured solubility kinetic?
1. COc1cccc(C(=O)O/N=C(\C)c2cnccn2)c1
2. COC(=O)c1sc(N2CCCCC2)c(C#N)c1N
3. CN(C)c1cccc(C(=O)N(Cc2ccccc2)Cc2ccccc2)c1
4. Cc1onc(-c2ccccc2Cl)c1C(=O)NCc1ccc(F)cc1
5. CCC(=O)Nc1c(-c2ccc3ccccc3c2)nc2ccccn12
6. Cc1cc(C(=O)N2CCN(c3ccc([N+](=O)[O-])cc3)CC2)c(C)o1
7. NC(=O)c1ccc2nc(-c3ccccc3)c(-c3ccccc3)nc2c1

30.7
2.2
4.2
45.3
45.7
20.3
0.6

Give measured solubility kinetic for every item shown.
1. O=C(c1cccc([N+](=O)[O-])c1)N1CCc2ccccc21
2. COC(=O)c1cc(OC)c(OC)cc1NC(=S)N1CCCC1

1. 2.1
2. 6.3

Here are 5 compounds. What values of solubility kinetic were reported for them?
1. O=C(Nc1nccs1)c1c(O)c2c([nH]c1=O)CCCC2
2. CN(C)C(=O)COc1ccc2c(-c3ccccc3)cc(=O)oc2c1
3. O=C(O)C1C2CCC(C2)C1C(=O)Nc1ccccc1 (stereo not given)
4. Cc1ccc(C(=O)N[C@H](C(=O)Nc2ccc(F)cc2)C(C)C)cc1
5. O=C(c1ccc(F)c(F)c1)N1CCCc2ccccc21

1: 0.9; 2: 12.6; 3: 38.8; 4: 3; 5: 37.9

Parameters: items (list). Returns: solubility kinetic for each item.
1. CN(CC(=O)Nc1ccc(Cl)cc1)C(=O)CCC1CCCC1
2. CN(C)Cc1c(-c2ccc(Cl)cc2)nc2ccccn12
3. CCNS(=O)(=O)c1ccc(NC(=S)N2CCc3ccccc32)cc1
4. Cc1noc(C)c1C(=O)Nc1nc2ccc(F)cc2s1
5. O=C(O)c1ccc(CSc2nc3ccccc3[nH]2)cc1

0.4
40.4
1.2
22.2
39.2

Quick check: solubility kinetic of Cc1cc(OCC(O)CN2CCCC2)ccc1C(C)C.Cl (stereo not given) ?
39.1

====

Please respond with reported solubility kinetic for every item in the list.
- condition_set: buffer; pH 7.4; 200.0 µM

As a guide, the following entries are already answered.
Cc1cccc(NC2=C(Cl)C(=O)OC2OC(C)C)c1 (stereo not drawn)	> 42.3 µg/mL
O=C(COC(=O)c1ccccc1OCc1ccccc1Cl)NC1CCS(=O)(=O)C1 (stereo not drawn)	> 65.7 µg/mL

Now for the compound whose solubility kinetic we want.
GET /values?readout=solubility kinetic&item= Nc1[nH]c(=O)ncc1F
> 19.4 µg/mL

====

For each record, write down the corresponding solubility kinetic.
- condition_set: buffer; pH 7.4; 200.0 µM

CSc1ncccc1C(=O)Nc1cccc(S(=O)(=O)N2CCOCC2)c1	> 59 µg/mL
Cc1ccccc1CN1CCN(CC2CC2)CC1CCO (stereo not drawn)	> 43.3 µg/mL

Could you now consider this next compound?
May I ask what solubility kinetic has been recorded for CCCn1c(SCC(=O)N(C)C2CCS(=O)(=O)C2)nc2sc3c(c2c1=O)CCC3 (stereo not drawn) ?
> 68.3 µg/mL
